- experiment-summary: osmotic lysis modulators in infected erythrocytes, primary screen, PSAC antagonist project, cell-based, P. falciparum Indochina, OD700, 3 h (AID 1156)
- assay-setup: higher = more signal, called active from +8 up or from −8 down
Each record gets a class by z-score: group A = under 0.04, group B = from 0.04 up to 0.7, group C = 0.7 and over

compound: CCCNC(=O)[C@@]1(Sc2ccc(C)cc2)CC(=O)N(Cc2ccccc2Cl)[C@@H]1c1ccc(CO)cc1
label-class: group A
--
compound: CCCC=C(CCC)[C@@H](NS(=O)(=O)c1ccc(-c2ccccc2)cc1)c1ccc(C(=O)OC)cc1
label-class: group B
--
compound: C[N+](C)(C)CCCC[C@@H]1NC(=O)[C@H]2C[C@@H](C(=O)NCc3ccc(F)cc3)[C@@H](c3cccc(OCCO)c3)N2C1=O
label-class: group A
--
compound: CCC#CCN(Cc1ccccc1Br)[C@H](/C=C/c1ccccc1)[C@@H](O)Cc1ccccc1
label-class: group A
--
compound: CCCNC(=O)[C@@H]1c2ccccc2C(=O)N(C2CCCCC2)[C@H]1c1ccc(CO)cc1
label-class: group C
--
compound: CO[C@H]1COC(=O)[C@H](C)NC(=O)CC=C[C@@H](C)[C@H](NS(=O)(=O)c2ccc(C)cc2)COC(=O)[C@@H](OCc2ccccc2)C=C[C@@H]1C
label-class: group B
--
compound: C=CC[C@]1(C(=O)OC)N=C(c2ccc(OCCCO)cc2)O[C@H]1c1ccccc1CN=[N+]=[N-]
label-class: group C
--
compound: O=C(CS)NCCCCCNC(=O)[C@H]1C[C@H]2C(=O)N3CCC[C@H]3C(=O)N2[C@H]1c1ccc(O)cc1
label-class: group A
--
compound: CO[C@H]1COC(=O)CC=C[C@H](C)[C@@H](OC)COC(=O)CC=C[C@@H]1C
label-class: group B
--
compound: Cc1cc(C)c(C(O)C2C=CC3C(=O)N(C)C(=O)C3N2N2CCCCC2)c(C)c1 (centres undefined)
label-class: group A
--
compound: NC(=O)NCC#Cc1ccc2c(c1)[C@]1(C(=O)N2)[C@H](C(=O)N2CCCCCCC2)[C@H]2C(=O)O[C@H](c3ccccc3)[C@H](c3ccccc3)N2[C@@H]1c1ccccc1OCCO
label-class: group C
--
compound: C=CCOC(=O)[C@@H]1[C@H]2C(=O)O[C@H](c3ccccc3)[C@H](c3ccccc3)N2[C@H](c2ccc(OCCOC(=O)[C@H]3C[C@H]4C(=O)N5CCC[C@H]5C(=O)N4[C@H]3c3ccc(O)cc3)cc2)[C@@]12C(=O)Nc1ccccc12
label-class: group A
--
compound: C#CCNC(/C=C/c1ccccc1)CO (centres undefined)
label-class: group B
--
compound: O=C1c2ccccc2[C@](Cc2ccccc2I)(C(=O)O)[C@H](c2ccc(CO)cc2)N1C1CCCCC1
label-class: group C
--
compound: O=C1c2ccccc2[C@](Cc2ccccc2I)(C(=O)NCC(F)(F)F)[C@H](c2ccc(CO)cc2)N1Cc1ccccc1C(F)(F)F
label-class: group B
--
compound: O=C1O[C@H](c2ccccc2)[C@H](c2ccccc2)N2[C@H]1[C@@H](C(=O)NC[C@H](O)c1ccccc1)[C@]1(C(=O)Nc3ccc(C#CC4(O)CCCCCC4)cc31)[C@H]2c1ccc(OCCO)cc1
label-class: group B
--
compound: Cc1ccc(S[C@]2(C(=O)NC(C)C)CC(=O)N(C3Cc4ccccc4C3)[C@@H]2c2ccc(CO)cc2)cc1
label-class: group C
--
compound: CO[C@@H]1COC(=O)[C@@H]2CCCN2C(=O)CC=C[C@@H](C)[C@H](OC)COC(=O)[C@@H]2CCCN2C(=O)CC=C[C@H]1C
label-class: group B
--
compound: O=C1OCC=C[C@H]2OC34C=CCN(Cc5ccccc5)C(=O)[C@H]3N(CCO)C(=O)[C@@H]4[C@@H]12 (some centres undefined)
label-class: group A
--
compound: O=C(CS)NCCCCCCNC(=O)[C@@H]1C[C@@H]2C(=O)N[C@@H](Cc3ccccc3)C(=O)N2[C@@H]1c1ccc(O)cc1
label-class: group C

====

Catalogue of z-score readings, one per entry.
- experiment-summary: mitochondrial membrane potential change in A549 cells, profiling panel, cell-based, JC-1 fluorescence, basal, 24 h, 100 nL (AID 1138);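 also: A549 lung adenocarcinoma cells under basal conditions with no added stimulus; test concentration not given here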
- assay-setup: higher = more signal
readout-type: z-score

compound: CCCC[C@@H]1C[C@H]1[C@@H](NC(=O)c1ccccc1)c1ccccc1C(F)(F)F
reported-measurement: 0.294

compound: C=CCC(OC(C)=O)[C@@H]1[C@@H](N(Cc2ccc(-c3ccccc3)cc2)C(=O)c2ccc(C)cc2)c2cc(OCCCO)ccc2N1C(=O)c1ccc(-c2ccccc2)cc1 (stereo partly drawn)
reported-measurement: 2.98

compound: C=CCNC(=O)[C@H]1[C@@H]2C(=O)O[C@@H](c3ccccc3)[C@@H](c3ccccc3)N2[C@@H](c2ccc(O)cc2)[C@]12C(=O)Nc1ccc(C#CCNC(N)=O)cc12
reported-measurement: -0.171

compound: O=C1C2C=CC(C(O)Cc3ccccc3)N(Nc3ccc([N+](=O)[O-])cc3)C2C(=O)N1c1ccccc1 (stereo not drawn)
reported-measurement: -0.75

compound: C=C(CCCC)/C(=C/C[C@@H](OC(=O)c1ccncc1)c1ccc(CO)o1)c1cnc2ccccc2c1
reported-measurement: 0.146

compound: C=C(CCCC)C(=O)CC[C@@H](OC(C)=O)c1ccccc1OCCO
reported-measurement: 0.846

compound: C=CC[C@]1(C(=O)N2CCCCC2)N=C(c2ccc(OCCCO)cc2)O[C@H]1c1ccccc1N=[N+]=[N-]
reported-measurement: -0.591

compound: O=C1O[C@H](c2ccccc2)[C@H](c2ccccc2)N2[C@H]1[C@@H](C(=O)NC[C@H](O)c1ccccc1)[C@]1(C(=O)Nc3ccc(C#CC4=CCCCC4)cc31)[C@H]2c1ccc(OCCO)cc1
reported-measurement: -1.76

====

- experiment-summary: MM1S cell viability effects, profiling panel, calcein-AM fluorescence, 48 h, basal (AID 1165);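 also: viability of MM1S multiple myeloma cells under basal unstimulated conditions; test concentration not given here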
- assay-setup: higher = more signal
Lab note: anything with z-score at or over -0.2 counts as yes; the rest go in no.

compound: O=C1C[C@@](C(=O)NCCN2CCOCC2)(c2ccc([N+](=O)[O-])cc2)[C@@H](c2ccc(CO)cc2)N1C1CCCCC1
label-class: yes
--
compound: COCCOC(=O)N1C(=O)[C@@]2(c3cc(C#CCNC(N)=O)ccc31)[C@H](c1ccc(OCCO)cc1)N1[C@H](c3ccccc3)[C@H](c3ccccc3)OC(=O)[C@H]1[C@@H]2C(=O)N1CCCCCCC1
label-class: yes
--
compound: C=CCOC(=O)[C@@H]1[C@H]2C(=O)O[C@H](c3ccccc3)[C@H](c3ccccc3)N2[C@H](c2ccc(OCCOC(=O)[C@H]3C[C@H]4C(=O)N5CCC[C@H]5C(=O)N4[C@H]3c3ccc(O)cc3)cc2)[C@@]12C(=O)Nc1ccccc12
label-class: no
--
compound: O=C1C2C=CC(C(O)C(c3ccccc3)c3ccccc3)N(Nc3ccc([N+](=O)[O-])cc3)C2C(=O)N1c1ccccc1 (stereo unspecified)
label-class: no
--
compound: O=C1O[C@H](c2ccccc2)[C@H](c2ccccc2)N2[C@H]1[C@@H](C(=O)NC[C@H](O)c1ccccc1)[C@]1(C(=O)Nc3ccc(C#CC4(O)CCCCCC4)cc31)[C@H]2c1ccc(OCCO)cc1
label-class: no
--
compound: COC(=O)[C@@]1(Cc2ccccc2)[C@H]2c3cc(C(=O)N4CCCC4)n(CCN4CNCC4=O)c3C[C@H]2CN1C(=O)c1ccccc1
label-class: yes

====

Catalogue of z-score readings, one per entry.
- experiment-summary: fission yeast growth modulation, primary screen, strain 972, OD600, 24 h, no modulator (AID 1090);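 also: basal condition with compound alone and no growth modifier present; test concentration not given here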
- assay-setup: S. pombe 972 growth, higher = more signal, called active from +8 up or from −8 down

smiles-str: O=C1O[C@@H](c2ccccc2)[C@@H](c2ccccc2)N2[C@@H](c3ccc(O)cc3)[C@]3(C(=O)Nc4ccccc43)[C@@H](C(=O)N3CCN(c4ncccn4)CC3)[C@H]12
z-score: -1.95
//
smiles-str: CO[C@H]1COC(=O)CC=C[C@@H](C)COC(=O)[C@@H](C)NC(=O)CC=C[C@@H]1C
z-score: -2.87
//
smiles-str: CC(=O)NCCCC[C@@H]1NC(=O)[C@H]2C[C@@H](C(=O)NCCCCCCN(C)C)[C@@H](c3cccc(OCCO)c3)N2C1=O
z-score: -0.36
//
smiles-str: CCOC(=O)C1=CC[C@@H](c2ccccc2)N(S(=O)(=O)c2ccc(C)cc2)[C@H]1C
z-score: -0.212

====

- Test system: Sonic hedgehog protein (Shh)
- experiment-summary: small-molecule binders of Shh protein, primary screen, biochemical, small-molecule microarray, 635/667 nm fluorescence (AID 1151);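 also: Shh protein binding to compounds spotted on small-molecule microarray slides; score combines spot fluorescence intensity with signal-to-noise across triplicate slides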
- assay-setup: small-molecule microarray binding, 635 nm fluorescence; higher = more signal
Lab note: anything with composite z-score at or over 1 counts as condition met; the rest go in condition not met.

compound: COCCOC(=O)N1C(=O)[C@@]2(c3cc(C#CC4=CCCCC4)ccc31)[C@H](C(=O)NC[C@H](O)c1ccccc1)[C@H]1C(=O)O[C@H](c3ccccc3)[C@H](c3ccccc3)N1[C@@H]2c1ccc(OCCO)cc1
label-class: condition met

compound: Cc1ccc(S[C@]2(C(=O)NC3CC3)CC(=O)N(Cc3cc(C(F)(F)F)cc(C(F)(F)F)c3)[C@@H]2c2ccc(CO)cc2)cc1
label-class: condition met

compound: CO[C@H]1O[C@H](CO)[C@@H](OC(=O)Nc2ccccc2)[C@H](OC(=O)Nc2ccc3c(c2)OCO3)[C@@H]1OC(=O)Nc1ccc2c(c1)OCO2
label-class: condition not met

compound: COC(=O)[C@@]1(Cc2ccccc2CN=[N+]=[N-])N=C(c2ccc(OCCCO)cc2)O[C@H]1c1ccccc1N=[N+]=[N-]
label-class: condition met

compound: CCCN1C(=O)[C@@]2(CCS(=O)(=O)c3ccccc3)N=C(c3ccc(OCCCO)cc3)O[C@H]2c2ccccc21
label-class: condition met

compound: CC(C)C[C@@H]1NC(=O)[C@H]2C[C@@H](C(=O)NCCCCCC[N+](C)(C)C)[C@@H](c3ccc(O)cc3)N2C1=O
label-class: condition met

compound: C=C[C@H](OC)[C@@H](OC(=O)Nc1ccc(SC)cc1)c1ccc(OC)c(O)c1
label-class: condition not met

compound: CN(C)C(=O)[C@@]1(Cc2ccccc2N=[N+]=[N-])N=C(c2ccc(OCCCO)cc2)O[C@H]1c1ccccc1CN=[N+]=[N-]
label-class: condition not met

compound: O=C(NCc1ccccc1)c1ccc(Br)cc1[N+](=O)[O-]
label-class: condition not met

compound: O=C1O[C@@H](c2ccccc2)[C@@H](c2ccccc2)N2[C@@H](c3ccccc3OCCO)[C@]3(C(=O)Nc4ccc(C#CC5=CCCCC5)cc43)[C@@H](C(=O)O)[C@H]12
label-class: condition not met

compound: CCN1C(C)=C(C(=O)OC)[C@@H](c2ccccc2)N2C(=O)[C@@]3(C(=O)OC)O[C@@]12[C@@H]1C(=O)CCC[C@@H]13
label-class: condition met

compound: NC(=O)NCC#Cc1ccc2c(c1)[C@]1(C(=O)N2)[C@H](C(N)=O)[C@H]2C(=O)O[C@H](c3ccccc3)[C@H](c3ccccc3)N2[C@@H]1c1ccccc1OCCO
label-class: condition met

compound: O=C1C[C@@](C(=O)NC2CC2)(c2ccc([N+](=O)[O-])cc2)[C@@H](c2ccc(CO)cc2I)N1CC12CC3CC(CC(C3)C1)C2
label-class: condition met

compound: CCCC=C(CCC)[C@@H](NS(=O)(=O)c1cccc(C(F)(F)F)c1)c1ccc(C(=O)OC)cc1
label-class: condition not met

compound: Cc1ccc(S[C@]2(C(=O)NCCCN(C)C)CC(=O)N(Cc3ccccc3)[C@@H]2c2ccc(CO)cc2I)cc1
label-class: condition not met

compound: CO[C@H]1COC(=O)[C@H](CCSC)NC(=O)CC=C[C@@H](C)COC(=O)[C@@H](OCc2ccccc2)C=C[C@@H]1C
label-class: condition met

compound: CCC(=O)[C@]12O[C@@]3([C@@H]4C(=O)OCC[C@@H]41)N(Cc1ccccc1)C(C)=C(C(=O)OC)[C@@H](c1ccccc1)N3C2=O
label-class: condition met

compound: CO[C@@H]1COC(=O)[C@H](COCc2ccccc2)NC(=O)CC=C[C@@H](C)[C@H](OC)COC(=O)[C@H](COCc2ccccc2)NC(=O)CC=C[C@H]1C
label-class: condition not met

compound: C=C(COC)/C(=C/C[C@@H](OC(=O)c1ccncc1)c1ccc(OCCO)cc1)c1cc(C(=O)OC)ccc1OC
label-class: condition not met

compound: C=CCC(OC(C)=O)[C@@H]1[C@@H](N(Cc2cccc3ccccc23)C(=O)Cc2ccc(F)cc2)c2cc(OCCCO)ccc2N1C(=O)Cc1ccc2ccccc2c1 (stereo partly drawn)
label-class: condition not met

compound: CC(C)[C@H]1NC(=O)[C@@]23C(=O)N[C@@H](Cc4ccccc4)C2[C@H](C)[C@@]2(C)O[C@H]2C3/C=C/C/C=C\CNC(=O)[C@H](C)NC1=O (stereo partly drawn)
label-class: condition not met

compound: CN1CCC(CCCO)=CC1C1CC1 (stereo not drawn)
label-class: condition met

compound: CO[C@H]1O[C@H](CO)[C@@H](OC(=O)CCc2ccccc2)[C@@H]2OC(=O)[C@H](Cc3cccc(Br)c3)C/C=C/C[C@@H](Cc3cccc(Br)c3)C(=O)O[C@@H]12
label-class: condition not met

The measured values listed here are drawn from PubChem BioAssay.
